- procedure details: compounds altering HSF1 focus formation in cells – imaging, Selleck Cancer Library (AID 1347162)
- condition notes: human cells, HSF1 nuclear foci imaging, at 10 µM; hits give low values
parameter measured: plate-normalised HSF1 focus index
I'd appreciate a reply containing only the number, no unit.

compound: Cn1cnc2c(F)c(Nc3ccc(Br)cc3Cl)c(C(=O)NOCCO)cc21
observed value: 1.09

Lookup: Determine its reported plate-normalised HSF1 focus index: C[C@@H]1CCN(C(=O)CC#N)C[C@@H]1N(C)c1ncnc2[nH]ccc12
Found: 1.17

Lookup: Determine its reported plate-normalised HSF1 focus index: COc1ccc(C2=NC(c3ccc(Cl)cc3)C(c3ccc(Cl)cc3)N2C(=O)N2CCNC(=O)C2)c(OC(C)C)c1 (centres undefined)
Found: 1.18

Lookup: Determine its reported plate-normalised HSF1 focus index: C=CCn1c(=O)c2cnc(Nc3ccc(N4CCN(C)CC4)cc3)nc2n1-c1cccc(C(C)(C)O)n1
Found: 1.07

Lookup: Determine its reported plate-normalised HSF1 focus index: Cn1cc(-c2[nH]c3cc(NC(=O)[C@H](N)C4CCCCC4)cc4c3c2C=NNC4=O)cn1
Found: 0.932

Lookup: Determine its reported plate-normalised HSF1 focus index: CNC(=O)[C@@H](NC(=O)[C@H](CC(C)C)[C@H](O)C(=O)NO)C(C)(C)C
Found: 1.2

Lookup: Determine its reported plate-normalised HSF1 focus index: C[C@]1(c2nc3c(C(N)=O)cccc3[nH]2)CCCN1
Found: 1.01

Lookup: Determine its reported plate-normalised HSF1 focus index: Cc1cn(-c2cc(NC(=O)c3ccc(C)c(Nc4nccc(-c5cccnc5)n4)c3)cc(C(F)(F)F)c2)cn1
Found: 1.05

Lookup: Determine its reported plate-normalised HSF1 focus index: Cc1c(C(=O)Nc2ccc(N3C[C@@H](C)O[C@@H](C)C3)nc2)cccc1-c1ccc(OC(F)(F)F)cc1
Found: 0.637

Lookup: Determine its reported plate-normalised HSF1 focus index: O=C(NCCS(=O)(=O)c1ccc(C(F)(F)F)cn1)c1ccc(Cl)cc1
Found: 1.2

Lookup: Determine its reported plate-normalised HSF1 focus index: c1ccc(-c2nn3c(c2-c2ccnc4cc(OCCN5CCOCC5)ccc24)CCC3)nc1
Found: 1.13

Lookup: Determine its reported plate-normalised HSF1 focus index: Nc1ccccc1NC(=O)c1ccc(CNc2nccc(-c3cccnc3)n2)cc1
Found: 1.13

Lookup: Determine its reported plate-normalised HSF1 focus index: Nc1nccc(Oc2ccc(NC(=O)c3c[nH]cc(-c4ccc(F)cc4)c3=O)cc2F)c1Cl
Found: 0.991

Lookup: Determine its reported plate-normalised HSF1 focus index: O=C(NOC[C@H](O)CO)c1ccc(F)c(F)c1Nc1ccc(I)cc1F
Found: 1.21

Lookup: Determine its reported plate-normalised HSF1 focus index: CC(=O)Nc1nc(C)c(-c2ccc(Cl)c(S(=O)(=O)NCCO)c2)s1
Found: 1.13
